- tested_system: T1, human plasma Kallikrein (human, UniProt P03952 20-638, limits assumed)
- T1 construct: also called hPK; human PK
- T1 sequence (P03952 20-638 limits assumed): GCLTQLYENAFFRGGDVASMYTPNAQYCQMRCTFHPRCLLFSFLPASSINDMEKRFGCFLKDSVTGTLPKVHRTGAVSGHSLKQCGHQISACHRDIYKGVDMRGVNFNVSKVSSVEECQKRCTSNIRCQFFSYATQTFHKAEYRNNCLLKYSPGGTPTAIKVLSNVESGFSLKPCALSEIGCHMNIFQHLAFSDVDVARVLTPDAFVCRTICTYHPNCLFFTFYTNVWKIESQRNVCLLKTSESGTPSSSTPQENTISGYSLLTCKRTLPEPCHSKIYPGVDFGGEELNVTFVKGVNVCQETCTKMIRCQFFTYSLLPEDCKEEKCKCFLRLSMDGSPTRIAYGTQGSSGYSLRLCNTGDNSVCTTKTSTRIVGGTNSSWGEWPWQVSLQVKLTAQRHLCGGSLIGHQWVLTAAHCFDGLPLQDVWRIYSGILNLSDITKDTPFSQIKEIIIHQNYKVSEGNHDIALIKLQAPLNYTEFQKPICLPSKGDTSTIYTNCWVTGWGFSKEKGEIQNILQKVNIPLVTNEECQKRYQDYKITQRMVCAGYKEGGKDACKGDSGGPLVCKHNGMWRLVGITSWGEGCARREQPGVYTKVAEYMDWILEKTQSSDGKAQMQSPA
- measurement_protocol: enzyme inhibition assay
Numbered stars: 1 amine (or outer) side, 2 acyl side, 3 side chain; on linkers, the order of the positions; unused ones are H or OH. Bridge positions count the residues as written; N and C are the ends. TBMB = c1c(C[*:1])cc(C[*:3])cc1C[*:2]
Provide the recorded Ki for the entries that follow.
Return type: number; implicit unit µM.

IN: For the binder shown here, Ac-CAPWSRCLHQDLC-NH2 (linker 1-7-13 via TBMB; SMILES CC(=O)N[C@H]1CSCc2cc3cc(c2)CSC[C@H](NC(=O)[C@H](CCCNC(=N)N)NC(=O)[C@H](CO)NC(=O)[C@H](Cc2c[nH]c4ccccc24)NC(=O)[C@@H]2CCCN2C(=O)[C@H](C)NC1=O)C(=O)N[C@@H](CC(C)C)C(=O)N[C@@H](Cc1c[nH]cn1)C(=O)N[C@@H](CCC(N)=O)C(=O)N[C@@H](CC(=O)O)C(=O)N[C@@H](CC(C)C)C(=O)N[C@H](C(N)=O)CSC3) [Ac-(06-34-18) Scram 3] , give the reported Ki.
OUT: 1.89

IN: For the binder shown here, Ac-CSAAARCLHQDLC-NH2 (linker 1-7-13 via TBMB; SMILES CC(=O)N[C@H]1CSCc2cc3cc(c2)CSC[C@H](NC(=O)[C@H](CCCNC(=N)N)NC(=O)[C@H](C)NC(=O)[C@H](C)NC(=O)[C@H](C)NC(=O)[C@H](CO)NC1=O)C(=O)N[C@@H](CC(C)C)C(=O)N[C@@H](Cc1c[nH]cn1)C(=O)N[C@@H](CCC(N)=O)C(=O)N[C@@H](CC(=O)O)C(=O)N[C@@H](CC(C)C)C(=O)N[C@H](C(N)=O)CSC3) [Ac-(06-34-18) A2A3] , give the reported Ki.
OUT: 18.5

IN: For the binder shown here, Ac-CSWPARCLHQDLC-NH2 (linker 1-7-13 via TBMB; SMILES CC(=O)N[C@H]1CSCc2cc3cc(c2)CSC[C@H](NC(=O)[C@H](CCCNC(=N)N)NC(=O)[C@H](C)NC(=O)[C@@H]2CCCN2C(=O)[C@H](Cc2c[nH]c4ccccc24)NC(=O)[C@H](CO)NC1=O)C(=O)N[C@@H](CC(C)C)C(=O)N[C@@H](Cc1c[nH]cn1)C(=O)N[C@@H](CCC(N)=O)C(=O)N[C@@H](CC(=O)O)C(=O)N[C@@H](CC(C)C)C(=O)N[C@H](C(N)=O)CSC3, also called Ac-(06-34-18) wildtype; Ac-(06-34-18) WPAR) [Ac-06-34-18(TMB)-NH2] , give the reported Ki.
OUT: 0.00017

IN: For the binder shown here, Ac-CSAQARCLHQDLC-NH2 (linker 1-7-13 via TBMB; SMILES CC(=O)N[C@H]1CSCc2cc3cc(c2)CSC[C@H](NC(=O)[C@H](CCCNC(=N)N)NC(=O)[C@H](C)NC(=O)[C@H](CCC(N)=O)NC(=O)[C@H](C)NC(=O)[C@H](CO)NC1=O)C(=O)N[C@@H](CC(C)C)C(=O)N[C@@H](Cc1c[nH]cn1)C(=O)N[C@@H](CCC(N)=O)C(=O)N[C@@H](CC(=O)O)C(=O)N[C@@H](CC(C)C)C(=O)N[C@H](C(N)=O)CSC3) [Ac-(06-34-18) A2Q3] , give the reported Ki.
OUT: 15.8
